# target: purified LasB protein from P. aeruginosa (Pseudomonas aeruginosa, UniProt P14756)
# Construct: purchased Merck or Charles River Laboratories
# Sequence (P14756 198-498): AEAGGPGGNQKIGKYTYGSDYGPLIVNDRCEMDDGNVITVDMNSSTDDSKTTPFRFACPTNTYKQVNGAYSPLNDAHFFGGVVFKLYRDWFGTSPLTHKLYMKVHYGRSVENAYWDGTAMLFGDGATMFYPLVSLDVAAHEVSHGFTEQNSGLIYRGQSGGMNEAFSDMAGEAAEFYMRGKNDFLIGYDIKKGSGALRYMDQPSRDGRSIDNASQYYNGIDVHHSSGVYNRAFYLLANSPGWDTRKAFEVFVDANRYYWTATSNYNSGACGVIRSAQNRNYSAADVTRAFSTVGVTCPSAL
# method.summary: Fluorometric assay to determine Ki (Abz-Ala-Gly-Leu-Ala-p-Nitro-Benzyl-Amide substrate)
# Format: biochemical
What Ki was measured for each of the following?

CN1CCN(CCCn2cc(-c3csc(CNC(=O)C4(CC(=O)O)Cc5ccccc5C4)n3)cn2)CC1 : 50 to 200 nM
CN1CCN(C(=O)COc2ccc(-c3csc(CNC(=O)C4(CC(=O)O)Cc5ccccc5C4)n3)cn2)CC1 : 50 to 200 nM
O=C(O)CC1(C(=O)NCc2nc(-c3ccc(OCc4ccncc4)nc3)cs2)Cc2ccccc2C1 : < 50 nM
O=C(O)CC1(C(=O)NCc2nc(-c3ccccc3OC(F)(F)F)cs2)Cc2ccccc2C1 : 50 to 200 nM
CN(C)CCOc1cccc(-c2csc(CNC(=O)C3(CC(=O)O)Cc4ccccc4C3)n2)c1 : 200 to 10000 nM
COc1cc(OCC(=O)N2CC[N+](C)(C)CC2)ccc1-c1csc(CNC(=O)C2(CC(=O)[O-])Cc3cc(F)c(F)cc3C2)n1 : 50 to 200 nM

# per-item lookup of Ki; items listed below
1. CN1CCN(CCCn2cc(-c3csc(CNC(=O)C4(CC(=O)O)Cc5ccccc5C4)n3)cn2)CC1=O
2. Cn1cc(-c2csc(CNC(=O)C3(CC(=O)O)Cc4ccccc4C3)n2)cn1
3. CN(C)CCOc1ccc(-c2csc(CNC(=O)C3(CC(=O)O)Cc4ccccc4C3)n2)cc1
4. Cn1nccc1-c1csc(CNC(=O)C2(CC(=O)O)Cc3ccccc3C2)n1
5. CN1CCC(C(=O)Nc2ccc(-c3csc(CNC(=O)C4(CC(=O)O)Cc5ccccc5C4)n3)cc2)CC1
6. COc1cc(OCc2ccc[n+](C)c2)ccc1-c1csc(CNC(=O)C2(CC(=O)[O-])Cc3ccccc3C2)n1
7. O=C(O)CC1(C(=O)NCc2nc(-c3ccccc3OCCO)cs2)Cc2ccccc2C1
8. CN(C)CC(=O)Nc1ccc(-c2csc(CNC(=O)C3(CC(=O)O)Cc4ccccc4C3)n2)cc1

Result string:
1. 50 to 200 nM
2. 50 to 200 nM
3. 200 to 10000 nM
4. 50 to 200 nM
5. 200 to 10000 nM
6. 50 to 200 nM
7. 50 to 200 nM
8. 50 to 200 nM

---

# target: purified LasB protein from P. aeruginosa (Pseudomonas aeruginosa)
# Construct: purchased Merck or Charles River Laboratories
# method.summary: Fluorometric assay to determine Ki (Abz-Ala-Gly-Leu-Ala-p-Nitro-Benzyl-Amide substrate)
# Type: biochemical
# Experimental: Experiments were therefore conducted (1) to measure the potency of inhibition of compounds of the invention against purified Pseudomonas aeruginosa LasB enzyme and also experiments were conducted (2) to measure the ability of compounds of the invention to inhibit LasB-catalysed elastin degradation. The first assay uses a commercial fluorescent synthetic peptide and purified LasB enzyme. […]
pKi: −log10 of the molar value.
quantity.name: pKi

Below, 4 molecules whose answers are already recorded.
COc1cc(N2CCN(C)CC2)ccc1-c1csc(CNC(=O)C2(CC(=O)O)Cc3ccccc3C2)n1 [Example 31] : 6.70 to 7.30
O=C([O-])CC1(C(=O)NCc2nc(-c3ccc(OCCC[n+]4ccccc4)cc3)cs2)Cc2ccccc2C1 [Example 59] : 6.70 to 7.30
CN1CCN(c2ccc(-c3csc(CNC(=O)C4(CC(=O)O)Cc5ccccc5C4)n3)cn2)CC1 [Example 34] : 6.70 to 7.30
COc1cccc(-c2csc(CNC(=O)C3(CC(=O)O)Cc4ccccc4C3)n2)c1 [Example 5] : 6.70 to 7.30

# per-item lookup of pKi; items listed below
1. CN(C)CCNS(=O)(=O)c1ccc(-c2csc(CNC(=O)C3(CC(=O)O)Cc4ccccc4C3)n2)cc1 [Example 131]
2. O=C(O)CC1(C(=O)NCc2nc(-c3cnn(CCN4CCOCC4)c3)cs2)Cc2ccccc2C1 [Example 96]

Result string:
1: 5.00 to 6.70; 2: 6.70 to 7.30

Query string: Check purified LasB protein from P. aeruginosa (Pseudomonas aeruginosa) data and give pKi for CS(=O)(=O)c1cc(-c2csc(CNC(=O)C3(CC(=O)O)Cc4ccccc4C3)n2)ccc1OCCCN1CCOCC1 [Example 60] .
Result string: > 7.30

---

What Ki was measured for each of the following?
# target: purified LasB protein from P. aeruginosa (Pseudomonas aeruginosa, UniProt P14756)
# Construct: purchased Merck or Charles River Laboratories
# method.summary: Fluorometric assay to determine Ki (Abz-Ala-Gly-Leu-Ala-p-Nitro-Benzyl-Amide substrate)
# Assay type: biochemical

Below, 2 compounds whose answers are already recorded.
C[N+]1(CCOc2ccc(-c3csc(CNC(=O)C4(CC(=O)[O-])Cc5ccccc5C4)n3)cc2)CCOCC1 : 200 to 10000 nM
COc1cc(OCC(=O)N2CCN(C)CC2)ccc1-c1csc(CNC(=O)C2(CC(=O)O)Cc3ccccc3C2)n1 : 50 to 200 nM

Query string: State its Ki for this compound: CN(C)CC(=O)N1CCC(n2cc(-c3csc(CNC(=O)C4(CC(=O)O)Cc5ccccc5C4)n3)cn2)CC1
Result string: 200 to 10000 nM

---

# target: purified LasB protein from P. aeruginosa (Pseudomonas aeruginosa)
# Construct: purchased Merck or Charles River Laboratories
# method.summary: Fluorometric assay to determine Ki (Abz-Ala-Gly-Leu-Ala-p-Nitro-Benzyl-Amide substrate)
# Type: biochemical
pKi: −log10 of the molar value.
quantity.name: pKi

Below, 4 compounds whose answers are already recorded.
O=C(O)CC1(C(=O)NCc2nc(-c3cnn(CCCN4CCCCC4)c3)cs2)Cc2ccccc2C1 [Example 111] : 5.00 to 6.70
COc1cc(OCCN2CCN(C)C(=O)C2)ccc1-c1csc(CNC(=O)C2(CC(=O)O)Cc3ccccc3C2)n1 [Example 83] : > 7.30
CN1CCN(C(=O)Nc2ccc(-c3csc(CNC(=O)C4(CC(=O)O)Cc5ccccc5C4)n3)cc2)CC1 [Example 44] : 6.70 to 7.30
Cc1c(-c2csc(CNC(=O)C3(CC(=O)O)Cc4ccccc4C3)n2)cnn1C [Example 91] : 6.70 to 7.30

# per-item lookup of pKi; items listed below
1. COc1ccc(-c2csc(CNC(=O)C3(CC(=O)[O-])Cc4ccccc4C3)n2)cc1C(=O)N1CCC([N+](C)(C)C)CC1 [Example 138]
2. COc1cc(OCCN2CCOCC2)ccc1-c1csc(CNC(=O)C2(CC(=O)O)Cc3ccccc3C2)n1 [Example 76]
3. CN1CCN(S(=O)(=O)c2ccc(-c3csc(CNC(=O)C4(CC(=O)O)Cc5ccccc5C4)n3)cc2)CC1 [Example 130]

Result string:
["5.00 to 6.70", "> 7.30", "6.70 to 7.30"]
